# Test protocol: Compound was evaluated for its partition between n-octanol and water(pH 7)
# Type: physicochemical
# Test settings: buffer
Parameter: Distribution percent

O=C1C(O[C@@H]2OC(CO)[C@@H](O)C(O)[C@@H]2O)=C(O)O[C@@H]1[C@@H](O)CO (stereo not given in full): 0
CCCCCCCCCCCCCCCC(=O)OC[C@H](O)[C@H]1OC(O)=C(O[C@@H]2OC(CO)[C@@H](O)C(O)[C@@H]2O)C1=O (stereo not given in full): 87.3
CCCCCC(=O)OC[C@H](O)[C@H]1OC(O)=C(O[C@@H]2OC(CO)[C@@H](O)C(O)[C@@H]2O)C1=O (stereo not given in full): 8.7

[I] CCCCCCCCCCCCCC(=O)OC[C@H](O)[C@H]1OC(O)=C(O[C@@H]2OC(CO)[C@@H](O)C(O)[C@@H]2O)C1=O (stereo not given in full)
[II] CCCC(=O)OC[C@H](O)[C@H]1OC(O)=C(O[C@@H]2OC(CO)[C@@H](O)C(O)[C@@H]2O)C1=O (stereo not given in full)
Query: // which entry reports the smaller Distribution percent, I or II ? Provide the label of your selected option as the answer.
Result: II

[P] CCCCCCCCCC(=O)OC[C@H](O)[C@H]1OC(O)=C(O[C@@H]2OC(CO)[C@@H](O)C(O)[C@@H]2O)C1=O (stereo not given in full)
[Q] O=C1O[C@H]([C@@H](O)CO)C(O)=C1O
[R] CCCCCCCC(=O)OC[C@H](O)[C@H]1OC(O)=C(O[C@@H]2OC(CO)[C@@H](O)C(O)[C@@H]2O)C1=O (stereo not given in full)
Query: Hey, quick one: sort these by Distribution percent, low to high? Show the ranking through the labels, in the order asked for.
Result: Q, R, P
